Hello, the source for this data is DBAASP, in case you need it.

Observed MIC values for Candida albicans ATCC 10231 are listed in what follows.
experimental.readout: MIC

INSERT INTO measurements (compound, recorded_result) VALUES
  ('C[C@H](NC(=O)[C@H](Cc1c[nH]c2ccccc12)NC(=O)[C@H](CCCCN)NC(=O)[C@H](Cc1ccccc1)NC(=O)[C@H](CCCN=C(N)N)NC(=O)[C@H](Cc1c[nH]c2ccccc12)NC(=O)[C@@H](N)CCCN=C(N)N)C(=O)N[C@@H](CCCCN)C(=O)N[C@@H](CCCCN)C(=O)O [RWRFKWAKK]', '> 76.6 µM'),
  ('CC(C)C[C@H](NC(=O)[C@H](CCCCN)NC(=O)[C@@H]1CCCN1C(=O)[C@H](CC(C)C)NC(=O)[C@H](CC(C)C)NC(=O)[C@@H]1CCCN1C(=O)[C@H](CCCCN)NC(=O)[C@H](CC(C)C)NC(=O)[C@H](CCCCN)NC(=O)[C@@H]1CCCN1C(=O)[C@H](CC(C)C)NC(=O)[C@H](CC(C)C)NC(=O)[C@H](CC(C)C)NC(=O)[C@H](CCCCN)NC(=O)[C@H](CC(C)C)NC(=O)[C@H](CC(C)C)NC(=O)[C@H](CCCCN)NC(=O)[C@@H](N)Cc1ccc(O)cc1)C(N)=O [YKLLKLLLPKLKPLLPKL]', '> 79.7 µM'),
  ('CC[C@H](C)[C@H](N)C(=O)N[C@H]1CSSC[C@@H](C(=O)N[C@H](C(=O)O)[C@@H](C)CC)NC(=O)[C@H](Cc2cnc[nH]2)NC(=O)[C@H](Cc2cnc[nH]2)NC1=O [ICHHCI]', '> 706 µM');
